Reported IC50 values for the following compounds.
# System: Decaprenylphosphoryl-beta-D-ribose oxidase (Mycobacterium tuberculosis (strain ATCC 25618 / H37Rv), UniProt P9WJF1)
# Test: Covalent inhibition of recombinant Mycobacterium tuberculosis DprE1 extracted from Escherichia coli BL21(DE3) using FPR/GGPR as substrate incubated for 60 mins by resazurin dye based fluorescence plate reader analysis
Reported endpoint: IC50 (µM)

* C=CC(=O)Nc1cc(C(F)(F)F)cc2c(=O)nc(N3CCC4(CC3)OC[C@H](C)O4)sc12 | 6.83
* C[C@H]1COC2(CCN(c3nc(=O)c4cc(C(F)(F)F)cc(NC(=O)C(C)(C)Br)c4s3)CC2)O1 | 81.4
* C=C(C)C(=O)Nc1cc(C(F)(F)F)cc2c(=O)nc(N3CCC4(CC3)OC[C@H](C)O4)sc12 | 33.9

----------
# System: Decaprenylphosphoryl-beta-D-ribose oxidase (Mycobacterium tuberculosis (strain ATCC 25618 / H37Rv))
# Test: Covalent inhibition of recombinant Mycobacterium tuberculosis DprE1 extracted from Escherichia coli BL21(DE3) assessed as inhibition constant using FPR/GGPR as substrate incubated for 60 mins by resazurin dye based fluorescence plate reader analysis
Reported Ki values for the following molecules.
Reported endpoint: Ki (µM)

* C=CC(=O)Nc1cc(C(F)(F)F)cc2c(=O)nc(N3CCC4(CC3)OC[C@H](C)O4)sc12 | 38.8
* C=C(C)C(=O)Nc1cc(C(F)(F)F)cc2c(=O)nc(N3CCC4(CC3)OC[C@H](C)O4)sc12 | 214
* C[C@H]1COC2(CCN(c3nc(=O)c4cc(C(F)(F)F)cc(NC(=O)C(C)(C)Br)c4s3)CC2)O1 | 715

----------
# System: Decaprenylphosphoryl-beta-D-ribose oxidase (Mycobacterium tuberculosis (strain ATCC 25618 / H37Rv))
# Sequence (P9WJF1 whole entry): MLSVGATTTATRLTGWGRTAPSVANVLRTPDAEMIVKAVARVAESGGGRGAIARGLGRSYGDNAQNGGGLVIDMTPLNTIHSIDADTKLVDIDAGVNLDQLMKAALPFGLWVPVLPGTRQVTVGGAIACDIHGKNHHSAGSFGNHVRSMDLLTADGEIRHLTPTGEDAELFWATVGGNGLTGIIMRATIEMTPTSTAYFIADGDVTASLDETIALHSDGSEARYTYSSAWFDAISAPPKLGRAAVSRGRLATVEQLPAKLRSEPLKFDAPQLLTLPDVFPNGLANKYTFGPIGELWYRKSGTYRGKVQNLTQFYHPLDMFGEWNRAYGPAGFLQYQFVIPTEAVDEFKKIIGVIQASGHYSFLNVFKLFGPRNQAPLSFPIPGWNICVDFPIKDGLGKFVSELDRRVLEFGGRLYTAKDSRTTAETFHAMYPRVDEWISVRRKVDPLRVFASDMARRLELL
# Test: Reversible inhibition of recombinant Mycobacterium tuberculosis DprE1 extracted from Escherichia coli BL21(DE3) using FPR/GGPR as substrate incubated for 60 mins by resazurin dye based fluorescence plate reader analysis
Reported IC50 values for the following compounds.
Reported endpoint: IC50 (nM)

* C=CP(=O)(Nc1cc(C(F)(F)F)cc2c(=O)nc(N3CCC4(CC3)OC[C@H](C)O4)sc12)OCC (stereo partly drawn) | 19500
* C=C(F)C(=O)Nc1cc(C(F)(F)F)cc2c(=O)nc(N3CCC4(CC3)OC[C@H](C)O4)sc12 | 1130
* C=CS(=O)(=O)Nc1cc(C(F)(F)F)cc2c(=O)nc(N3CCC4(CC3)OC[C@H](C)O4)sc12 | 2620

Just for reference, ChEMBL document CHEMBL6074635 is where these values come from.
